- Test system: RARb homodimer (NR concentration 270 nM)
- procedure.details: PBM binding z-score (relative to random genomic background probes); higher = stronger binding; sequences stand for … in GC…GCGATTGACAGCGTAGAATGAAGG
Think of 2 as a floor: if PBM binding z-score stands on it or above, it is label 1; beneath it, label 0.

1) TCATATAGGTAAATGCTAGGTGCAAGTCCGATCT : label 0
2) CCTACTGGGCCTTTCAGAGGTCATTGATCATATG : label 1
3) CCTCGGAGGACAACAGGAGCTCAGAGCTGCCAGA : label 0

IN: Confirm if PBM binding z-score reported for the sequence CCTTACGGGTCACTGACAGGTTAAAGCATTTGGA is 2 or above.
OUT: label 1

IN: Confirm if PBM binding z-score reported for the sequence ACTTACGGGTCAACGAGGTTATATCACGCGTATA is 2 or above.
OUT: label 1

IN: Confirm if PBM binding z-score reported for the sequence TAGCCTAGGTCAGATTGGGCCAGTATACGCTATA is 2 or above.
OUT: label 1

Ref: the supplement of paper PMC6555819
